System: NCI-H2030 [G12C]
Sequence (as listed by the source, stated change not applied): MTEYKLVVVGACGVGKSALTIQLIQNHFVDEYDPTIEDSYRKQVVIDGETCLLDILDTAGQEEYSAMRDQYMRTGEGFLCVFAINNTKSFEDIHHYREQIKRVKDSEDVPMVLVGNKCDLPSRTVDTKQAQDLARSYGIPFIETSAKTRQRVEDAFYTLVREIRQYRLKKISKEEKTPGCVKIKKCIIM
Measurement Notes: Protac activity at E3 ubiquitin ligase/KRAS G12C mutant in human NCI-H2030 cells assessed as maximal KRAS degradation at 1 uM after 24 hrs by Western blot analysis relative to control
Type: cell-based
Examples of molecules with documented Emax follow.

Here are 5 molecules together with their reported answers.
| Molecule | Result |
| --- | --- |
| C=CC(=O)N1CCN(c2nc(NCCC(=O)N(C)CCOCCOCCOCCOCC(=O)N[C@H](C(=O)N3C[C@H](O)C[C@H]3C(=O)N[C@@H](C)c3ccc(-c4scnc4C)cc3)C(C)(C)C)nc3c(F)c(-c4cc(O)cc5ccccc45)c(Cl)cc23)CC1 | > 50% |
| C=CC(=O)N1CCN(c2nc(NCCC(=O)N(C)CCOCCOCCOCCOCCOCC(=O)N[C@H](C(=O)N3C[C@H](O)C[C@H]3C(=O)N[C@@H](C)c3ccc(-c4scnc4C)cc3)C(C)(C)C)nc3c(F)c(-c4cc(O)cc5ccccc45)c(Cl)cc23)CC1 | > 50% |
| CCC(=O)N1CCN(c2nc(NCCC(=O)N(C)CCOCCOCCOCCOCCOc3ccc4c(c3)CN(C3CCC(=O)NC3=O)C4=O)nc3c(F)c(-c4cc(O)cc5ccccc45)c(Cl)cc23)CC1 (stereo unspecified) | 25 to 50% |
| C=CC(=O)N1CCN(c2nc(NCCC(=O)N(C)CCOCCOCCOCC(=O)N[C@H](C(=O)N3C[C@H](O)C[C@H]3C(=O)N[C@@H](C)c3ccc(-c4scnc4C)cc3)C(C)(C)C)nc3c(F)c(-c4cc(O)cc5ccccc45)c(Cl)cc23)CC1 | 25 to 50% |
| C=CC(=O)N1CCN(c2nc(NCCC(=O)N(C)CCOCCOCCOCCNc3cccc4c3C(=O)N(C3CCC(=O)NC3=O)C4=O)nc3c(F)c(-c4cc(O)cc5ccccc45)c(Cl)cc23)CC1 (stereo unspecified) | 25 to 50% |

Alright, here's another molecule for you.
State the recorded Emax for this entry: `CCC(=O)N1CCN(c2nc(NCCC(=O)N(C)CCOCCOCCOCCOCC(=O)N[C@H](C(=O)N3C[C@H](O)C[C@H]3C(=O)N[C@@H](C)c3ccc(-c4scnc4C)cc3)C(C)(C)C)nc3c(F)c(-c4cc(O)cc5ccccc45)c(Cl)cc23)CC1`
< 25%
